tested on: H1975 (lung adenocarcinoma, DM, L828R/T790M); experiment: Antiproliferative activity on H1975 cells (Alamar Blue); type: cell-based; conditions: Homo sapiens, NCI-H1975; H1975 cells, average values obtained in several tests, Table 16; read-out: H1975 (DM) IC50
readout-name: IC50 (nM)
The reply should contain only the number, in nM.

Q. Provide the reported IC50 (system: H1975 (lung adenocarcinoma, DM, L828R/T790M)) for C=CC(=O)Nc1cc(Nc2nccc(C(=O)c3ccccc3OC)n2)c(OC)cc1N(C)CCN(C)C
A. 5.6

Q. Provide the reported IC50 (system: H1975 (lung adenocarcinoma, DM, L828R/T790M)) for C=CC(=O)Nc1cc(Nc2cc(C(=O)c3ccc(N(CC)CC)cc3)ccn2)c(OC)cc1N(C)CCN(C)C
A. 34.2

Q. Provide the reported IC50 (system: H1975 (lung adenocarcinoma, DM, L828R/T790M)) for C=CC(=O)Nc1cc(Nc2nccc(C(=O)c3ccc(N4CCC[C@H](O)C4)cc3)n2)c(OC)cc1N(C)CCN(C)C
A. 4.35

Q. Provide the reported IC50 (system: H1975 (lung adenocarcinoma, DM, L828R/T790M)) for C=CC(=O)Nc1cc(Nc2cc(C(=O)c3ccc(OC)cc3OC)ccn2)c(OC)cc1N(C)CCN(C)C
A. 57.6

* * *

tested on: H1975 (lung adenocarcinoma, DM, L828R/T790M); assay: Antiproliferative activity on H1975 cells (Alamar Blue); assay type: cell-based; settings: Homo sapiens, NCI-H1975; H1975 cells, average values obtained in several tests, Table 16; read-out: H1975 (DM) IC50
Counter-ions that a name gives are not always drawn.
The label criterion met is reserved for IC50 strictly under 30 nM; criterion not met covers values equal to or above it.

Q. I wonder whether C=CC(=O)Nc1cc(Nc2nccc(C(=O)c3ccc(N4CCC[C@H](OC)C4)cc3)n2)c(OC)cc1N(C)CCN(C)C has IC50 below 30 nM. Can you tell?
A. criterion met

Q. I wonder whether C=CC(=O)Nc1cc(Nc2nccc(C(=O)c3ccc(OCCC)cc3)n2)c(OC)cc1N(C)CCN(C)C has IC50 below 30 nM. Can you tell?
A. criterion met

Q. I wonder whether C=CC(=O)Nc1cc(Nc2nccc(C(=O)c3ccc(OCCC)cc3OCCC)n2)c(OC)cc1N(C)CCN(C)C has IC50 below 30 nM. Can you tell?
A. criterion not met

Q. I wonder whether C=CC(=O)Nc1cc(Nc2nccc(C(=O)c3cccc([N+](=O)[O-])c3)n2)c(OC)cc1N(C)CCN(C)C has IC50 below 30 nM. Can you tell?
A. criterion not met

Q. I wonder whether C=CC(=O)Nc1cc(Nc2nccc(C(=O)c3ccc(N4CC[C@H](O)C4)cc3)n2)c(OC)cc1N(C)CCN(C)C.O=CO [EGFR_3365_112, formate] has IC50 below 30 nM. Can you tell?
A. criterion met

Q. I wonder whether C=CC(=O)Nc1cc(Nc2nccc(C(=O)c3ccc(N4CC[C@H](OC)C4)cc3)n2)c(OC)cc1N(C)CCN(C)C has IC50 below 30 nM. Can you tell?
A. criterion met

Q. I wonder whether C=CC(=O)Nc1cc(Nc2nccc(C(=O)c3c(OC)cc(OC)cc3OC)n2)c(OC)cc1N(C)CCN(C)C has IC50 below 30 nM. Can you tell?
A. criterion not met

Q. I wonder whether C=CC(=O)Nc1cc(Nc2nccc(C(=O)c3ccc(N4CC(OC)C4)cc3)n2)c(OC)cc1N(C)CCN(C)C has IC50 below 30 nM. Can you tell?
A. criterion met

Q. I wonder whether C=CC(=O)Nc1cc(Nc2nccc(C(=O)c3ccc(OCC)cc3)n2)c(OC)cc1N(C)CCN(C)C has IC50 below 30 nM. Can you tell?
A. criterion met

Q. I wonder whether C=CC(=O)Nc1cc(Nc2cc(C(=O)c3ccccc3OC)ccn2)c(OC)cc1N(C)CCN(C)C has IC50 below 30 nM. Can you tell?
A. criterion not met

Q. I wonder whether C=CC(=O)Nc1cc(Nc2nccc(C(=O)c3ccc(N4CCC(N)CC4)cc3)n2)c(OC)cc1N(C)CCN(C)C has IC50 below 30 nM. Can you tell?
A. criterion met

Q. I wonder whether C=CC(=O)Nc1cc(Nc2nccc(C(=O)c3ccc(N(CC)CC)cc3)n2)c(OC)cc1N(C)CCN(C)C has IC50 below 30 nM. Can you tell?
A. criterion met

Q. I wonder whether C=CC(=O)Nc1cc(Nc2nccc(C(=O)c3ccc(N(C)C)cc3)n2)c(OC)cc1N(C)CCN(C)C has IC50 below 30 nM. Can you tell?
A. criterion met

Q. I wonder whether C=CC(=O)Nc1cc(Nc2nccc(C(=O)c3ccccc3C(F)(F)F)n2)c(OC)cc1N(C)CCN(C)C has IC50 below 30 nM. Can you tell?
A. criterion not met

Q. I wonder whether C=CC(=O)Nc1cc(Nc2nccc(C(=O)c3ccc(OCC)cc3OCC)n2)c(OC)cc1N(C)CCN(C)C has IC50 below 30 nM. Can you tell?
A. criterion not met

Q. I wonder whether C=CC(=O)Nc1cc(Nc2cc(C(=O)c3ccc(N4CCN(C)CC4)cc3)ccn2)c(OC)cc1N(C)CCN(C)C has IC50 below 30 nM. Can you tell?
A. criterion not met

Q. I wonder whether C=CC(=O)Nc1cc(Nc2nccc(C(=O)c3ccc(N4CCCCC4)cc3OC)n2)c(OC)cc1N(C)CCN(C)C has IC50 below 30 nM. Can you tell?
A. criterion met

Q. I wonder whether C=CC(=O)Nc1cc(Nc2nccc(C(=O)c3ccc(N4CCC4)cc3)n2)c(OC)cc1N(C)CCN(C)C has IC50 below 30 nM. Can you tell?
A. criterion met

Q. I wonder whether C=CC(=O)Nc1cc(Nc2nccc(C(=O)c3ccc(OC)cc3)n2)c(OC)cc1N(C)CCN(C)C has IC50 below 30 nM. Can you tell?
A. criterion met

Q. I wonder whether C=CC(=O)Nc1cc(Nc2nccc(C(=O)c3cccc(F)c3)n2)c(OC)cc1N(C)CCN(C)C has IC50 below 30 nM. Can you tell?
A. criterion not met

Q. I wonder whether C=CC(=O)Nc1cc(Nc2cc(C(=O)c3ccc(OC)cc3)ccn2)c(OC)cc1N(C)CCN(C)C has IC50 below 30 nM. Can you tell?
A. criterion not met

Q. I wonder whether C=CC(=O)Nc1cc(Nc2nccc(C(=O)c3ccc(OCCCC)cc3)n2)c(OC)cc1N(C)CCN(C)C has IC50 below 30 nM. Can you tell?
A. criterion not met

Q. I wonder whether C=CC(=O)Nc1cc(Nc2nccc(C(=O)c3ccccc3[N+](=O)[O-])n2)c(OC)cc1N(C)CCN(C)C has IC50 below 30 nM. Can you tell?
A. criterion not met

Q. I wonder whether C=CC(=O)Nc1cc(Nc2nccc(C(=O)c3ccc(N4CCN(C)CC4)cc3)n2)c(OC)cc1N(C)CCN(C)C [EGFR_3365_62, formate] has IC50 below 30 nM. Can you tell?
A. criterion met

Q. I wonder whether C=CC(=O)Nc1cc(Nc2nccc(C(=O)c3ccc(N4CCC[C@@H](OC)C4)cc3)n2)c(OC)cc1N(C)CCN(C)C has IC50 below 30 nM. Can you tell?
A. criterion not met
